Numbers sourced from the supplement of paper PMC9694430.

- Test system: LOC_OS06G22820-cb001;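 further: purified Escherichia coli-expressed rice kinase domain construct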
- Sequence (as listed by the source): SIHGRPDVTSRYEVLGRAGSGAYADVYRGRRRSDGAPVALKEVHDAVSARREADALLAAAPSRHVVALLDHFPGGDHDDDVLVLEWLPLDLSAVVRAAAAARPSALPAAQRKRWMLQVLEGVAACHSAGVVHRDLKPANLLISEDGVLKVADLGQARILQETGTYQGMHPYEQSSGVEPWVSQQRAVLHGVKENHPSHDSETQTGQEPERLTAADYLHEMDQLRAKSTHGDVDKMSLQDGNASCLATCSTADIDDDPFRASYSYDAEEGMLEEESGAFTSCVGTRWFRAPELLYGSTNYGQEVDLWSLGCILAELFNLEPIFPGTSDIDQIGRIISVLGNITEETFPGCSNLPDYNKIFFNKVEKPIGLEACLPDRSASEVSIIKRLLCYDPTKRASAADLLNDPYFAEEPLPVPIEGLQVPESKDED
- Test Details: thermal shift delta Tm vs DMSO control; higher = stronger stabilization (binding)
- Experimental Setup: 12.5 µM; protein concentration 2 µM
Structures can show the parent of a compound that is named as a salt.
I'd appreciate it if you could supply thermal shift delta Tm values for the items below.
Numbers only, in °C.

Molecule | Value Units | thermal shift delta Tm
CNC(=O)c1cc(Oc2ccc(NC(=O)Nc3ccc(Cl)c(C(F)(F)F)c3)cc2)ccn1 [Sorafenib Tosylate] | °C | 2.15
CC(C)n1nc(-c2ccc3oc(N)nc3c2)c2c(N)ncnc21 | °C | 0.75
Nc1nccc(Oc2ccc3c(C(=O)Nc4cccc(C(F)(F)F)c4)cccc3c2)n1 | °C | 0.99

Dear reader, for each entry below, please note its thermal shift delta Tm.
1. CC1(C)C=Cc2c(ccc3c2OC[C@@H](c2ccc(O)cc2O)C3)O1
2. O=c1c(-c2ccc(O)cc2)coc2cc(O)cc(O)c12
3. CCc1cccc(CC)c1NC(=O)N1Cc2[nH]nc(NC(=O)c3ccc(N4CCN(C)CC4)cc3)c2C1
4. Cc1nc(-c2cn3c(n2)-c2ccc(-c4cnn(C(C)(C)C(N)=O)c4)cc2OCC3)n(C(C)C)n1
5. Nc1nccc(Oc2ccc(NC(=O)c3c[nH]cc(-c4ccc(F)cc4)c3=O)cc2F)c1Cl
6. COc1cc2ncc(-c3ccccc3)nc2cc1OC

1. 0.89
2. 0.81
3. 1.47
4. 0.16
5. 0.86
6. 0.24

Dear reader, for each entry below, please note its thermal shift delta Tm.
1. CCOc1cc2ncc(C#N)c(Nc3ccc(F)c(Cl)c3)c2cc1NC(=O)/C=C/CN(C)C [Pelitinib (EKB-569)]
2. COc1cc2ncnc(Nc3ccc(F)c(Cl)c3)c2cc1NC(=O)/C=C/CN1CCCCC1
3. CCCCOc1c(C(=O)c2c(F)cc(C)cc2F)c[nH]c2nncc1-2
4. CNC(=O)CN1CCC(Oc2cc3c(Nc4cccc(Cl)c4F)ncnc3cc2OC)CC1
5. C[C@@H](N)c1ccc(C(=O)Nc2ccnc3[nH]ccc23)cc1
6. C=CC(=O)Nc1cccc(Nc2nc(Nc3ccc(N4CCN(C(C)=O)CC4)cc3OC)ncc2C(F)(F)F)c1

[0.39, 1.31, 1.75, 0.37, 0.59, 0.68]

Dear reader, for each entry below, please note its thermal shift delta Tm.
1. CN(C)S(=O)(=O)c1ccc2c(c1)/C(=C/c1cc3c([nH]1)CCCC3)C(=O)N2
2. CN1CCN(Cc2ccc(-c3cnc4[nH]cc(-c5ccc6[nH]ccc6c5)c4c3)cc2)CC1
3. CC(C)(C)c1cc(/C=C(\C#N)C(N)=S)cc(C(C)(C)C)c1O
4. CC(C)(O)CC(=O)NCCn1ccc2ncnc(Nc3ccc(Oc4cccc(C(F)(F)F)c4)c(Cl)c3)c21
5. O=C(O)c1ccc(-c2c[nH]c3ncc(-c4ccccc4)cc23)cc1C1CCCC1
6. COc1cc2nccc(Oc3ccc(NC(=O)C4(C(=O)Nc5ccc(F)cc5)CC4)cc3)c2cc1OC [Cabozantinib malate (XL184)]

1. 1.01
2. 0.7
3. 1.38
4. 1.33
5. 0.29
6. 0.93

Dear reader, for each entry below, please note its thermal shift delta Tm.
1. O=C(O)c1ccc(Nc2ncc3c(n2)-c2ccc(Cl)cc2C(c2c(F)cccc2F)=NC3)cc1
2. COc1cc2c(Nc3ccc(NC(=O)c4ccccc4)cc3)ncnc2cc1OCCCN1CCOCC1

[0.97, 0.94]

Dear reader, for each entry below, please note its thermal shift delta Tm.
1. COc1ccc(-c2ccc3c(N4CCOC[C@@H]4C)nc(N4CCOC[C@@H]4C)nc3n2)cc1CO
2. CS(=O)(=O)c1cccc(CNc2nc(Nc3ccc4c(c3)CCC(=O)N4)ncc2C(F)(F)F)c1
3. CN(c1ccccc1CNc1nc(Nc2ccc3c(c2)CC(=O)N3)ncc1C(F)(F)F)S(C)(=O)=O
4. CC(C)NC(=O)C1CCC(n2c(NC(=O)c3ccc(F)cc3)nc3ccc(CN4CCC(C(C)(C)O)CC4)cc32)CC1 (stereo not given)
5. N#Cc1ccc2[nH]c(O)c(-c3ccc(CN4CCOCC4)cn3)c2c1
6. CC(C)(C#N)c1ccc(N2C(=O)OCc3cnc4ccc(-c5cnc6ccccc6c5)cc4c32)cc1
7. CCCCCCCCCCCCCCCCCCOP(=O)([O-])OC1CC[N+](C)(C)CC1

[0.43, 0.35, -0.04, 0.48, 0.74, 0.89, 0.39]

Dear reader, for each entry below, please note its thermal shift delta Tm.
1. Cc1ccc(S(=O)(=O)/C=C/C#N)cc1
2. CCCCCCCCCC(=O)CC(O)S(=O)(=O)O (stereo not given) [Sodium Houttuyfonate]
3. O=C(NC(NC(=S)Nc1ccc(F)c([N+](=O)[O-])c1)C(Cl)(Cl)Cl)C(c1ccccc1)c1ccccc1 (stereo not given)
4. Nc1ncnc2c1c(-c1cnc3[nH]ccc3c1)nn2C1CCCC1
5. O=C(/C=C/c1ccc(O)c(O)c1)c1ccc(O)cc1O

0.01
-0.11
1.79
0.34
2.16
